Test system: Primary rat oligodendrocyte progenitor cells
run-description: Oligodendrocyte toxicity assay (LDH release, protection against toxin-induced toxicity)
Format: cell-based
reported-conditions: Camptothecin 10 μM; compound pretreatment 1 hour; LDH after 24 hours
measured-quantity: Oligodendrocyte progenitor protection against Camptothecin

{"columns": ["compound", "observed-measurement"],
 "data": [
  ["C[C@@]12CCc3cc(O)ccc3[C@H]1CC[C@@]1(C)[C@H]2CC[C@@H]1O [Compound 11, Estrogen]", "Effective"],
  ["Oc1ccc(-c2ccc3cc(O)ccc3c2Cl)cc1 [Compound 4]", "Effective"],
  ["Oc1ccc(-c2ccc3cc(O)ccc3c2)cc1 [Compound 7, 6-(4-Hydroxy-phenyl)-2-naphthalenol]", "Effective"]
]}
